Source of measurements: ChEMBL document CHEMBL1158587

# Tested on: A549
# assay_method_text: Cytotoxicity against human A549 cells by MTT assay
# Assay type: functional, cell-based
quantity_measured: IC50

{"compound": "COC(=O)[C@]1(C)CC2=C3C=C(C(=O)[C@H](O)[C@@]3(C)[C@@H]3C[C@H]23)[C@](C)(C(=O)OC)CC2=C3C=C1C(=O)[C@H](O)[C@@]3(C)[C@@H]1C[C@H]21", "quantity_measured": "IC50", "reported_measurement": "> 10 µM"}
{"compound": "C/C=C(\\C)C(=O)OC[C@]1(O)[C@H]2C[C@H]2[C@]2(C)[C@@H]3C[C@@]4(O)C5=C(C6=C(C)C(=O)O[C@]6(O)C(=O)[C@@]5(C)[C@@H]5C[C@@H]54)[C@@]34OC(=O)C(CO)=C4C[C@@H]12", "quantity_measured": "IC50", "reported_measurement": "> 10 µM"}
{"compound": "C/C=C(\\C)C(=O)OC[C@]1(O)[C@H]2C[C@H]2[C@]2(C)[C@@H]3C[C@@]4(O)C5=C(C6=C(C)C(=O)O[C@]6(O)[C@H](O)[C@@]5(C)[C@@H]5C[C@@H]54)[C@@]34OC(=O)C(CO)=C4C[C@@H]12 [CHLORAMULTILIDE D]", "quantity_measured": "IC50", "reported_measurement": "> 10 µM"}
{"compound": "COC(=O)/C(C)=C1\\C(=O)[C@H](O)[C@]2(C)C3=C([C@H]4C[C@H]42)[C@H](O)[C@@H]2[C@]4(OC(=O)C5=C4C[C@H]4[C@](O)(COC(=O)/C(C)=C/COC(=O)CCC(=O)OC5)[C@H]5C[C@H]5[C@]24C)[C@H]31", "quantity_measured": "IC50", "reported_measurement": "> 10 µM"}

###

Recorded pIC50 by entry
# System: A549
# assay_method_text: Cytotoxicity against human A549 cells by MTT assay
# Assay type: functional, cell-based
pIC50: −log10 of the molar value.
quantity_measured: pIC50

{"molecule": "C/C=C(\\C)C(=O)OCC1=C2C[C@H]3[C@H](O)[C@H]4C[C@H]4[C@]3(C)[C@@H]3C[C@@]4(O)C5=C(/C(=C(/C)C(=O)OC)C(=O)[C@H](O)[C@@]5(C)[C@@H]5C[C@@H]54)[C@]23OC1=O", "system": "A549", "quantity_measured": "pIC50", "reported_measurement": "< 5.00"}
{"molecule": "CC1=C2C3=C4[C@@](C)(C(=O)[C@@]2(O)OC1=O)[C@@H]1C[C@@H]1[C@@]4(O)C[C@@H]1[C@]32OC(=O)C3=C2C[C@H]2[C@](O)(COC(=O)/C(C)=C/COC(=O)CCC(=O)OC3)[C@H]3C[C@H]3[C@]12C [SPICACHLORANTIN B]", "system": "A549", "quantity_measured": "pIC50", "reported_measurement": "< 5.00"}

###

# Test system: SK-BR-3
# assay_method_text: Cytotoxicity against human SKBR3 cells by MTT assay
# Format: functional, cell-based

{"chemical_smiles": "CC1=C2C3=C4[C@](C)([C@@H]5C[C@@H]5[C@@]4(O)C[C@@H]4[C@]35OC(=O)C(CO)=C5C[C@H]3[C@](O)(CO)[C@H]5C[C@H]5[C@]43C)[C@@H](O)[C@@]2(O)OC1=O", "IC50": "> 10 µM"}
{"chemical_smiles": "COC(=O)/C(C)=C1\\C(=O)[C@H](O)[C@]2(C)C3=C([C@H]4C[C@H]42)[C@H](O)[C@@H]2[C@]4(OC(=O)C5=C4C[C@H]4[C@](O)(COC(=O)/C(C)=C/COC(=O)CCC(=O)OC5)[C@H]5C[C@H]5[C@]24C)[C@H]31", "IC50": "> 10 µM"}
